# TEST_TARGET: recombinant human MASP2 active protease (amino acids 297-686, C-terminal His Tag) (human, UniProt O00187 297-686)
# Sequence (O00187 other isoform, or with tags, fused parts or gaps limits assumed): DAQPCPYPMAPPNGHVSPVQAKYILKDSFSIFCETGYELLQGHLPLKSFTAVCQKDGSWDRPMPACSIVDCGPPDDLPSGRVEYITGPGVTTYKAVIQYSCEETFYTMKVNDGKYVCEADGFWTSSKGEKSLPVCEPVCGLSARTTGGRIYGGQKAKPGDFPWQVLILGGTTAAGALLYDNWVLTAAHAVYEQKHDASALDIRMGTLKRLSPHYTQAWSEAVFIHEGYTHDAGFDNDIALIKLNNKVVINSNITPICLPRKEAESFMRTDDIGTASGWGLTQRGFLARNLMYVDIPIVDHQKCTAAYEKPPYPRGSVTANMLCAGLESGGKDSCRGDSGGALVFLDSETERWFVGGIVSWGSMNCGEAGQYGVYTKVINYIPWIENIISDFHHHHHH
# EXPERIMENT_DESCRIPTION: cell-based or functional assay
Bridge positions count the residues as written; N and C are the ends. Square brackets hold non-standard residues; d marks the D form. Ends that are not written are not given here. Oic = O=C(O)[C@@H]1C[C@@H]2CCCC[C@@H]2N1; Pen = CC(C)(S)[C@H](N)C(=O)O
ENDPOINT_LABEL: human MASP2 IC50 (nM)
Write the value in nM as a bare number.

Which human MASP2 IC50 is reported for this binder? AICSRSLP[Oic]I[Pen]IPQ-OH (disulfide 3-11; N-terminus assumed; SMILES CC[C@H](C)[C@H](NC(=O)[C@H](C)N)C(=O)N[C@H]1CSSC(C)(C)[C@@H](C(=O)N[C@H](C(=O)N2CCC[C@H]2C(=O)N[C@@H](CCC(N)=O)C(=O)O)[C@@H](C)CC)NC(=O)[C@H]([C@@H](C)CC)NC(=O)[C@@H]2C[C@@H]3CCCC[C@@H]3N2C(=O)[C@@H]2CCCN2C(=O)[C@H](CC(C)C)NC(=O)[C@H](CO)NC(=O)[C@H](CCCNC(=N)N)NC(=O)[C@H](CO)NC1=O) [AIC+SRSLP-(Oic)-I-(Pen)+IPQ-OH]
140
